test system: T1, Anti-CD28 Fab (SEQ ID NOs: 202, 203)
T1 construct: biotinylated and captured on neutravidin coated plates in the phage ELISA
T1 sequence (VH, as listed by the source, chain 1 of 2): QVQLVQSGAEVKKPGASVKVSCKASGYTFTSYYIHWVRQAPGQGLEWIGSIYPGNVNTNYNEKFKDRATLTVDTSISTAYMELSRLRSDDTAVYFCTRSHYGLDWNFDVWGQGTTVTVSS
T1 sequence (VL, as listed by the source, chain 2 of 2): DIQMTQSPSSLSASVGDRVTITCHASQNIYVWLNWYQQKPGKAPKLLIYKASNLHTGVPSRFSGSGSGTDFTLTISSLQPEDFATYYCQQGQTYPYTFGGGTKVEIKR
protocol notes: phage ELISA, Fab on plate, CD28 antigen as competitor
For each entry below, report its Anti-CD28 Fab signal in the presence of CD28 value.
Give bare numbers.

Known results for binders:
YCDGHLSVYMSKCL [Phage-718] ... 0.07
YCDGHSEEFMWKCL [Phage-640] ... 0.06
YCDGHSSVYMLKCL [Phage-680] ... 0.06
YCDGHSLEYIDKCM [Phage-607] ... 0.09
YCDGHRAEYMLKCL [Phage-668] ... 0.08

For each listed entry, give its Anti-CD28 Fab signal in the presence of CD28.
1. YCEGHLEIYLAKCL [Phage-655]
2. YCDGHSPEHMGKCL [Phage-615]

[0.07, 0.09]
